System: DMS-273
assayProcedure: NCI tumour cell line growth inhibition, 48 h
Activity calls are given as the source filed them. Cut-off read from the data, not from the text of the source: active = GI50 up to about 1.1 µM and inactive = higher.
Would you mind answering with one of these outcomes? true (1) for active, false (0) for inactive

Prompt: Which outcome did this test record for the compound `COc1cc(/C=C(\C#N)C(N)=O)cc(Br)c1O` ?
Response: false (0)

Prompt: Which outcome did this test record for the compound COc1ccc(CN2C(=O)C(Cc3cc(OC)c(OC)c(C)c3OC)NC(=O)/C2=C/c2cc(OC)c(OC)c(C)c2OC)cc1 (configuration not stated) ?
Response: false (0)

Prompt: Which outcome did this test record for the compound `CCOc1ccc(NC2=CC(=O)C(=O)c3ccccc32)cc1` ?
Response: false (0)

Prompt: Which outcome did this test record for the compound `COC(=O)Cc1cc(=O)n2c([nH]c3ccccc32)c1C#N` ?
Response: false (0)

Prompt: Which outcome did this test record for the compound CCCCCCCCCCCCCCCCCC(=O)OCC1OC(OC)C(NC(=O)N(CCCl)N=O)C(O)C1O (configuration not stated) ?
Response: false (0)

Prompt: Which outcome did this test record for the compound CCN(CC)CCN1C(=O)c2c(c3c4cccc(Cl)c4n(C4OC(CO)C(OC)C(O)C4O)c3c3[nH]c4c(Cl)cccc4c23)C1=O (configuration not stated) ?
Response: true (1)

Prompt: Which outcome did this test record for the compound COc1c(CC=C(C)C)c(O)c(C(CC(C)C)c2c(O)c(CC=C(C)C)c(O)c(C(C)=O)c2O)c(O)c1C(C)=O (configuration not stated) ?
Response: true (1)

Prompt: Which outcome did this test record for the compound `CC1(C)C(=O)N(CCCCCCN2C(=O)C(C)(C)c3ccccc32)c2ccccc21` ?
Response: false (0)

Prompt: Which outcome did this test record for the compound CC(=O)N[C@@H]1C(O)CN2C(=O)C(=O)O[C@H](C(O)CO)[C@@H]12 (some centres not stated) ?
Response: false (0)

Prompt: Which outcome did this test record for the compound `NC1=NC(=O)/C(=C/c2ccccc2[N+](=O)[O-])C(N)=N1` ?
Response: false (0)

Prompt: Which outcome did this test record for the compound `CCOC(=O)Nc1ccc(S(=O)(=O)OC)cc1.CCOC(=O)Nc1ccc(S(=O)(=O)OC)cc1.NC(=O)NCCO` ?
Response: false (0)

Prompt: Which outcome did this test record for the compound CCCCN1C=CN2c3nc4cc(C)c(C)cc4n3C(C(=O)OC)=C(C(=O)OC)C12 (configuration not stated) ?
Response: false (0)

====

System: OVCAR-3
assayProcedure: NCI tumour cell line growth inhibition, 48 h
Calls of active or inactive are those of the source. Cut-off read from the data, not from the text of the source: active = GI50 up to about 1.1 µM and inactive = higher.
Would you mind answering with one of these outcomes? Y = active, N = inactive

Prompt: Which outcome did this test record for the compound `COc1ccc(Cn2c(C)nc3c2C(=O)c2ccccc2C3=O)cc1` ?
Response: N

Prompt: Which outcome did this test record for the compound `O=C1C=CC[C@H]2O[C@@H](COC(=O)Cc3ccccc3)C[C@H]2O1` ?
Response: N

Prompt: Which outcome did this test record for the compound `Nc1ccc2nc3ccc(N)cc3[n+](-c3ccccc3)c2c1` ?
Response: N

Prompt: Which outcome did this test record for the compound `Cc1cc(Cl)ccc1NC(=O)/C(Cc1nc2ccc(C(=O)c3ccccc3)cc2nc1O)=N/NC(=O)c1ccncc1` ?
Response: N

====

GI50 listing for selected compounds.
Tested on: DMS-114
assayProcedure: NCI tumour cell line growth inhibition, 48 h
Active and inactive are the calls of the source. No stated cut-off is given here; in the data, active = GI50 up to about 1.1 µM and inactive = higher.

Below: 4 compounds and their reported GI50.
COc1ccc(-c2cc(N3CCN(c4ccc(Cl)cc4)CC3)c(C#N)c(=O)o2)cc1 ... 7.41 µM (inactive)
CCc1cccc(=O)c([O-])c1.CCc1cccc(=O)c([O-])c1.[Bi+3].[Cl-] ... 3.01 µM (inactive)
O=C(O)CCC(NC(=O)c1ccc(Nc2cnc3cc(C(F)(F)F)ccc3n2)cc1)C(=O)O (stereo not given) ... > 100 µM (inactive)
Cc1ccc(/C=N\NC2c3cc(Cl)ccc3Nc3nc(O)nc(C)c32)cc1 (stereo not given) ... > 100 µM (inactive)

Next:
Prompt: Request - read-out GI50 | tested on DMS-114 | compound CC(CC[C@@H](C)C1CCC2[C@@H]3CC(O)C4CC(O)[C@@H](O)C[C@]4(C)C3CC[C@@]21C)C(C)(C)C (stereo not given in full)
Response: > 100 µM (inactive)
